- Test system: UACC-62 melanoma
- ASSAY_TEXT: NCI-60 one-dose screen, 48 h (100 = growth as untreated, 0 = no growth, -100 = all killed)
- MEASUREMENT_PARAMETERS: 10 µM unless noted
About 83,000 compounds went through this panel and 20% of them were active in at least one assay; those are over-represented in the sample as a whole. Active and inactive are the calls of the source. The calls were made as follows: active = growth percent below 10; inactive = the rest.
ASSAY_ENDPOINT: growth

For orientation, consider the following solved cases.
{"columns": ["COMPOUND", "TARGET_OR_SYSTEM", "growth"],
 "data": [
  ["CCCCn1c(-c2ccc(C(=O)O/N=C(\\N)c3ccc4c(c3)OCO4)cc2)nc(-c2ccccc2)c1-c1ccccc1", "UACC-62 melanoma", "67.9% (inactive)"],
  ["Cn1cc(-c2nonc2-c2c[nH]c3ccc(F)cc23)c2cccnc21", "UACC-62 melanoma", "64.4% (inactive)"],
  ["CCN(CC)S(=O)(=O)c1ccc(OC)c(NC(=O)c2[nH]c(C)c3c2CCCCC3=O)c1", "UACC-62 melanoma", "16.2% (inactive)"]
]}

Summary for this compound, `Nc1ccc(-c2cc3c(Nc4ccc(Oc5cccc(C(F)(F)F)c5)c(Cl)c4)ncnc3s2)cc1` : growth is 81.9% (inactive)

Summary for this compound, `COc1cc(C(=O)/C=C/c2cccnc2Nc2ccc(Cl)cc2)cc(OC)c1OC` : growth is -67% (active)

Summary for this compound, `CC(=O)Nc1ccc(-n2c(O)c(/C=N/NC(=O)Cc3ccccc3Nc3c(Cl)cccc3Cl)sc2=S)cc1` : growth is 95.4% (inactive)

Summary for this compound, `OCc1ccc(N2CCc3cccc(F)c3C2)cc1Cl` : growth is -11.2% [0.1 µM] (active)

Summary for this compound, `Cc1ccc(OC(=O)c2ccc(Cl)cc2)cc1` : growth is 94.7% (inactive)

Summary for this compound, `O=C1C=C(OCC=C(Cl)Cl)C(=O)c2ccccc21` : growth is 87% (inactive)

Summary for this compound, `Clc1ccc2nc3nc4ccc[nH]c4cc3c2c1` : growth is 80.4% (inactive)
